# Tested on: Escherichia coli TOP10;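 also: peptides expressed intracellularly from a pBAD plasmid library in pooled LB shake-flask culture, induced with 0.3% L-arabinose, DNA abundance read by NGS, three biological replicates, DESeq2 with apeglm shrinkage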
# testSummary: shrunken log2 fold change of peptide-encoding DNA abundance (4.5 h post-induction vs induction); higher = less antimicrobial activity (less host growth inhibition)
# measurementContext: time post-induction: 4.5 h; library: site-saturation at positions 5, 18, 19, 20
quantityName: shrunken log2 fold change

# count of solved cases: 3
- sequenceData: "RRIRPRPPRLPRPRPRPGMEPRP"
  reportedValue: 0.367
- sequenceData: "RRIRKRPPRLPRPRPRPYPEPRP"
  reportedValue: -0.0874
- sequenceData: "RRIRRRPPRLPRPRPRPEVGPRP"
  reportedValue: 0.946

Given item RRIRGRPPRLPRPRPRPGIHPRP , the value recorded as its shrunken log2 fold change is 0.251

Documented shrunken log2 fold change of RRIRWRPPRLPRPRPRPYPAPRP : -0.0239

Noted for RRIRKRPPRLPRPRPRPCTIPRP : its shrunken log2 fold change reads -0.204

Form field shrunken log2 fold change, entry RRIRVRPPRLPRPRPRPNEMPRP : 0.0222

# shrunken log2 fold change (sequence: RRIRRRPPRLPRPRPRPQEDPRP ) is 0.108

sequence RRIRGRPPRLPRPRPRPDPAPRP , shrunken log2 fold change observed: 1.06

The recorded shrunken log2 fold change for entry RRIRGRPPRLPRPRPRPDYQPRP equals -0.418

Reported shrunken log2 fold change ( RRIRRRPPRLPRPRPRPHRWPRP ) = 0.409

shrunken log2 fold change reported for this sequence RRIRRRPPRLPRPRPRPHPKPRP : 0.474
